- assay_text: Excipient compatibility: rifaximin solutions stored at various temperatures, chemical purity by HPLC
- Format: physicochemical
- condition_details: rifaximin in named solvent; T 4 weeks, 50° C.
endpoint_label: Rifaximin % Label Claim (LC)

• CCCCC/C=C\C/C=C\CCCCCCCC(=O)OCC(O)CO (stereo not drawn) [Glyceryl monolinoleate] = 92.9 % Label Claim (LC)
• CCCCCCCC/C=C\CCCCCCCCO [Oleyl alcohol] = 91.8 % Label Claim (LC)
• CCOCCOCCO [diethylene glycol monoethyl ether] = 74.2 % Label Claim (LC)
• OCCOCCOCCO [Triethylene glycol] = 92.5 % Label Claim (LC)
• CC(O)CO (stereo not drawn) [Propylene glycol] = 98.6 % Label Claim (LC)
• OCc1ccccc1 [Benzyl alcohol] = 93.0 % Label Claim (LC)
• CCCCCCCC/C=C\CCCCCCCC(=O)OCC(O)CO (stereo not drawn) [Glyceryl monooleate (Type 40), Glyceryl monooleate] = 41.7 % Label Claim (LC)
• CC(C)OC(=O)CCCCC(=O)OC(C)C [Diisopropyl adipate] = 30.4 % Label Claim (LC)
• CCOC(=O)CCCCCCCCC(=O)OCC [Diethyl sebacate] = 99.8 % Label Claim (LC)

----------
- assay_text: Excipient compatibility: rifaximin solutions stored at various temperatures, chemical purity by HPLC
- Format: physicochemical
- condition_details: rifaximin in named solvent; T 2 weeks, 40° C.
Here the recorded Rifaximin % Label Claim (LC) is given for each entry.
endpoint_label: Rifaximin % Label Claim (LC)

- CCOC(=O)CCCCCCCCC(=O)OCC [Diethyl sebacate]: 101.7 % Label Claim (LC)
- CCCCCCCC/C=C\CCCCCCCC(=O)OCC(O)CO (stereo not drawn) [Glyceryl monooleate (Type 40), Glyceryl monooleate]: 58.3 % Label Claim (LC)
- OCCOCCOCCO [Triethylene glycol]: 96.7 % Label Claim (LC)
- CCCCCCCC/C=C\CCCCCCCCO [Oleyl alcohol]: 97.1 % Label Claim (LC)
- CC(C)OC(=O)CCCCC(=O)OC(C)C [Diisopropyl adipate]: 71.3 % Label Claim (LC)
- CCOCCOCCO [diethylene glycol monoethyl ether]: 89.3 % Label Claim (LC)
- CC(O)CO (stereo not drawn) [Propylene glycol]: 97.0 % Label Claim (LC)
- CCCCC/C=C\C/C=C\CCCCCCCC(=O)OCC(O)CO (stereo not drawn) [Glyceryl monolinoleate]: 100.0 % Label Claim (LC)
- OCc1ccccc1 [Benzyl alcohol]: 96.3 % Label Claim (LC)

----------
Here the recorded Rifaximin % Label Claim (LC) is given for each entry.
- assay_text: Excipient compatibility: rifaximin solutions stored at various temperatures, chemical purity by HPLC
- Type: physicochemical
- condition_details: rifaximin in named solvent; T 4 weeks, 40° C.
endpoint_label: Rifaximin % Label Claim (LC)

• OCc1ccccc1 = 94.0 % Label Claim (LC)
• CC(O)CO (stereo not drawn) = 95.6 % Label Claim (LC)
• OCCOCCOCCO = 95.0 % Label Claim (LC)
• CCOC(=O)CCCCCCCCC(=O)OCC [Diethyl sebacate] = 98.8 % Label Claim (LC)
• CCOCCOCCO = 82.7 % Label Claim (LC)
• CC(C)OC(=O)CCCCC(=O)OC(C)C [Diisopropyl adipate] = 64.8 % Label Claim (LC)

----------
- assay_text: Compatibility of individual excipients with hard gelatin capsule shells
- Format: physicochemical
- condition_details: Hard Gel Capsules; T 2 weeks, 40° C.
endpoint_label: Physical change (Yes or No)

* CCCCC/C=C\C/C=C\CCCCCCCC(=O)OCC(O)CO (stereo not shown) [Glyceryl monolinoleate] | No
* OCc1ccccc1 | Yes
* CCCCCCCC/C=C\CCCCCCCCO | No
* CCCCCCCC/C=C\CCCCCCCC(=O)OCC(O)CO (stereo not shown) [Glyceryl monooleate (Type 40), Glyceryl monooleate] | No
* CCOC(=O)CCCCCCCCC(=O)OCC [Diethyl sebacate] | No
* OCCOCCOCCO | Yes
* CCOCCOCCO | No
